tested on: SARS-CoV-2; assay: Antiviral activity on SARS-CoV-2, viral replication (YFP) assay; format: cell-based; settings: Severe acute respiratory syndrome coronavirus 2, read-out: EC50 range
What EC50 was measured for each of the following?

Request: Entry [2H]C([2H])([2H])Oc1ccccc1-c1cc(F)c(NC(=O)C2=C(C(=O)O)CCC2)c(F)c1 [1/4] has what EC50?
Response: < 10 µM

Request: Entry [2H]C([2H])([2H])Oc1cccc(-c2ccc(NC(=O)C3=C(C(=O)O)CCC3)c3ccccc23)c1 [12/4] has what EC50?
Response: 10 to 25 µM

Request: Entry [2H]C([2H])([2H])Oc1cccc(-c2ccc(NC(=O)C3=C(C(=O)O)CCC3)c3c2CCC3)c1 [Example 12/1] has what EC50?
Response: < 10 µM

Request: Entry [2H]c1c([2H])c(F)c([2H])c(-c2cc(F)c(NC(=O)C3=C(C(=O)O)CCC3)c(F)c2)c1[2H] [1/7] has what EC50?
Response: < 10 µM

Request: Entry [2H]C([2H])([2H])Oc1cc(-c2cc(F)c(NC(=O)C3=C(C(=O)O)CCC3)c(F)c2)ccn1 [1/9] has what EC50?
Response: 25 to 50 µM

Request: Entry [2H]C([2H])([2H])Oc1nc(-c2cc(F)c(NC(=O)C3=C(C(=O)O)CCC3)c(F)c2)cs1 [1/8] has what EC50?
Response: 25 to 50 µM

Request: Entry [2H]C([2H])([2H])Oc1cccc(-c2c(F)c(F)c(NC(=O)C3=C(C(=O)O)CCC3)c(F)c2F)c1 [1/2] has what EC50?
Response: < 10 µM

* * *

What AUC(0-inf) was measured for each of the following?
test: in vivo; conditions: female, Han Wistar, rat, po, 5 mg/kg
Respond numerically; units are µg·h/mL and should not be typed.

Request: Entry `[2H]C([2H])([2H])Oc1cccc(-c2ccc(NC(=O)C3=C(C(=O)O)CCC3)c(F)c2)c1` has what AUC(0-inf)?
Response: 291

Request: Entry COc1cccc(-c2ccc(NC(=O)C3=C(C(=O)O)CCC3)c(F)c2)c1 [Example C26, vidofludimus, reference compound] has what AUC(0-inf)?
Response: 297

Request: Entry `[2H]c1cc([2H])c(-c2ccc(NC(=O)C3=C(C(=O)O)CCC3)c(F)c2)c([2H])c1OC([2H])([2H])[2H]` has what AUC(0-inf)?
Response: 320

* * *

What AUC was measured for each of the following?
test: in vivo; conditions: female, CC7BL/6J, mouse, po, 5 mg/kg
Respond numerically; units are ng·h/mL and should not be typed.

Request: Entry COc1cccc(-c2ccc(NC(=O)C3=C(C(=O)O)CCC3)c(F)c2)c1 [Example C26, vidofludimus, reference compound] has what AUC?
Response: 1970

Request: Entry [2H]C([2H])([2H])Oc1cccc(-c2ccc(NC(=O)C3=C(C(=O)O)CCC3)c(F)c2)c1 [Example 1] has what AUC?
Response: 5740

* * *

What AUC(0-inf) was measured for each of the following?
assay: in vivo; details: female, Han Wistar, rat, iv, 1 mg/kg
Respond numerically; units are ng·h/mL and should not be typed.

Request: Entry [2H]C([2H])([2H])Oc1cccc(-c2ccc(NC(=O)C3=C(C(=O)O)CCC3)c(F)c2)c1 [Example 1] has what AUC(0-inf)?
Response: 80700

Request: Entry COc1cccc(-c2ccc(NC(=O)C3=C(C(=O)O)CCC3)c(F)c2)c1 [Example C26, vidofludimus, reference compound] has what AUC(0-inf)?
Response: 82900

Request: Entry [2H]c1cc([2H])c(-c2ccc(NC(=O)C3=C(C(=O)O)CCC3)c(F)c2)c([2H])c1OC([2H])([2H])[2H] [Example 2] has what AUC(0-inf)?
Response: 79100
